- Test name: chemical genetic growth profiling, strain panel (AID 1159580);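 note: tested at 20 µM; growth read once vehicle control cultures reached saturation at 30 °C; 1 = growth at the plate median or of vehicle wells; lower values mean less growth of the strain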
- Settings: S. cerevisiae deletion strains, growth OD, locus YDL035C, strain GPR1, stronger effect = lower value
Out of some 5,500 compounds screened, about 2,000 (36%) were called active. Roughly 18% stayed inconclusive and do not appear here. Some of the results follow.
Measurement type: normalized growth

INSERT INTO results (smiles, measurement_type, obs_value) VALUES
  ('O=C(O)c1cc(=O)c2ccc(Cl)cc2[nH]1', 'normalized growth', '1.02 (inactive)'),
  ('COC(=O)COc1cc(Cl)c(Cl)cc1Cl', 'normalized growth', '1.01 (inactive)'),
  ('CC(C)(C)CC(C)(C)c1ccc(OCCOCC[N+](C)(C)Cc2ccccc2)cc1', 'normalized growth', '1.01 (inactive)'),
  ('N=c1nc(N2CCCCC2)cc(N)n1O', 'normalized growth', '0.98 (inactive)'),
  ('N#Cc1c(Cl)c(Cl)c(Cl)c(C#N)c1Cl', 'normalized growth', '1 (inactive)');

* * *

- Test name: chemical genetic growth profiling, strain panel (AID 1159580)
- Settings: S. cerevisiae deletion strains, growth OD, locus YAL026C, strain drs2, stronger effect = lower value
Out of some 5,500 compounds screened, about 2,000 (36%) were called active. Inconclusive results (about 18%) are left out. Some of the results follow.
The reader will find reported normalized growth values listed item by item below.
Measurement type: normalized growth

INSERT INTO assay_data (compound, obs_value) VALUES
  ('NC(N)=NOCC[C@H](N)C(=O)O', 1.01),
  ('C[N+](C)(C)CCOP(=O)([O-])OP(=O)(O)OC[C@H]1OC(n2ccc(N)nc2=O)[C@H](O)[C@@H]1O (stereo partly specified)', 1),
  ('C[C@@H]1O[C@@H](O[C@H]2[C@@H](Oc3cc(O)c4c(c3)O[C@H](c3ccc(O)cc3)CC4=O)O[C@H](CO)[C@@H](O)[C@@H]2O)[C@H](O)[C@H](O)[C@H]1O', 0.977),
  ('COc1ccc([C@@H]2CC(=O)c3c(O)cc(O)cc3O2)cc1O', 0.978),
  ('CC(C)(CO)C(O)C(=O)NCCCO (stereo unspecified)', 1.02),
  ('CCCCOc1ccc(CC(=O)NO)cc1', 0.983);

* * *

- Test name: chemical genetic growth profiling, strain panel (AID 1159580)
- Settings: S. cerevisiae deletion strains, growth OD, locus YMR058W, strain fet3
Among all 5,500 compounds or so, about 2,000 (36%) were called active. Inconclusive results (about 18%) are left out. Rule as the data show it: active = normalized growth mostly below about 0.91 (no sharp cut-off); inconclusive = no clear call, values can overlap the other calls; inactive = mostly above about 0.92. This is one part of the list.
Labels: active, inactive

INSERT INTO results (compound, assigned_label) VALUES
  ('O=C(O)c1ccccc1OP(=O)(O)O', 'inactive'),
  ('Cc1c(N(C)C)c(=O)n(-c2ccccc2)n1C', 'inactive'),
  ('COc1c2c(c(CC=C(C)C)c3oc(=O)c(-c4ccc(O)cc4)c(O)c13)OC(C)(C)C=C2', 'active'),
  ('CC(=O)O[C@@](C)(CCC=C(C)C)C1CC=C(C)CC1 (stereo partly specified)', 'inactive'),
  ('O=C(Cc1ccccc1)NO', 'inactive'),
  ('C[N+](C)(C)CC(=O)[O-]', 'inactive'),
  ('COC(=O)COc1cc(Cl)c(Cl)cc1Cl', 'inactive'),
  ('COc1ccc2c(c1)[C@@]1(C)CCC(=O)C[C@H]1CC2', 'inactive'),
  ('O=C(O)COc1cc(Cl)c(Cl)cc1Cl', 'inactive'),
  ('O=C(O)C1CC([C@@H]2CCCCN2)CN2CCCCC12 (stereo partly specified)', 'inactive'),
  ('COc1ccc(C[C@H]2NC[C@H](O)[C@H]2OC(C)=O)cc1', 'active'),
  ('O=C(/C=C/c1ccccc1)O[C@H]1C[C@@H](O)[C@]2(O)C=CO[C@@H](O[C@@H]3O[C@H](CO)[C@@H](O)[C@H](O)[C@H]3O)[C@H]12', 'inactive'),
  ('NC(N)=Nc1nc(CSCCC(N)=NS(N)(=O)=O)cs1', 'inactive'),
  ('Cc1cc(OC(=O)N2CCCCC2)c(C(C)C)cc1[N+](C)(C)C', 'inactive'),
  ('NC[C@@H]1O[C@H](O[C@@H]2[C@@H](CO)OC(O[C@@H]3[C@@H](O)[C@H](N)C[C@H](N)[C@H]3OC3O[C@H](CN)[C@@H](O)[C@H](O)[C@H]3N)[C@@H]2O)[C@H](N)[C@@H](O)[C@@H]1O (stereo partly specified)', 'inactive'),
  ('Cc1ccc2c(c1)CC[C@H]1CC(=O)CC[C@]21C', 'inactive'),
  ('C[CH2][Hg][S]c1ccccc1C(=O)O', 'active'),
  ('CCCCCCCC/C=C/CCCCCCCCOP(=O)([O-])OCC[N+](C)(C)C', 'active'),
  ('CCN(CC)C(=S)SSC(=S)N(CC)CC', 'active'),
  ('CC(=O)O[C@H]1C(=O)[C@@]2(C)C([C@H](OC(=O)c3ccccc3)[C@]3(O)C[C@H](O)C(C)=C1C3(C)C)[C@]1(OC(C)=O)CO[C@@H]1C[C@@H]2O (stereo partly specified)', 'inactive'),
  ('Cc1ccc(O)cc1', 'inactive'),
  ('CCCCCC(C)N (stereo unspecified)', 'inactive'),
  ('CC1(C)S[C@@H]2[C@H](NC(=O)[C@H](NC(=O)N3CCNC3=O)c3ccccc3)C(=O)N2C1C(=O)O (stereo partly specified)', 'inactive'),
  ('COc1ccc(C(=O)c2ccccc2)c(O)c1', 'active'),
  ('COc1cccc2c1CCC1CC(=O)CCC21C (stereo unspecified)', 'inactive'),
  ('COC1C(O)C(O)C(O)[C@@H](O)C1O (stereo partly specified)', 'inactive');

* * *

- Test name: chemical genetic growth profiling, strain panel (AID 1159580)
- Settings: S. cerevisiae deletion strains, growth OD, locus YFR010W, strain ubp6, stronger effect = lower value
The whole screen tested about 5,500 compounds, of which about 2,000 (36%) were called active. Another 18% or so got no clear call; they are omitted. The list shows a part of the results.
The reader will find reported normalized growth values listed item by item below.
Measurement type: normalized growth

INSERT INTO assay_data (molecule, measurement_type, obs_value) VALUES
  ('COC(=O)[C@@H]1C(O)CC[C@H]2CN3CCc4c([nH]c5ccccc45)[C@@H]3C[C@@H]21 (stereo not given in full)', 'normalized growth', '1.01 (inactive)'),
  ('CN1CCc2cc3c(cc2C1O)OCO3 (stereo not given)', 'normalized growth', '0.979 (inactive)'),
  ('COc1cccc([C@]2(O)CCCC[C@H]2CN(C)C)c1', 'normalized growth', '0.955 (inactive)'),
  ('CCCCCCCCCCCCC[N+](C)(C)Cc1ccccc1', 'normalized growth', '0.0662 (active)'),
  ('Cc1ccc2c(c1)CC[C@H]1CC(=O)CC[C@]21C', 'normalized growth', '1.01 (inactive)');

* * *

The reader will find reported normalized growth values listed item by item below.
- Test name: chemical genetic growth profiling, strain panel (AID 1159580);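 note: tested at 20 µM; growth read once vehicle control cultures reached saturation at 30 °C; 1 = growth at the plate median or of vehicle wells; lower values mean less growth of the strain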
- Settings: S. cerevisiae deletion strains, growth OD, locus YGR078C, strain PAC10, stronger effect = lower value
About 2,000 (36%) of roughly 5,500 compounds were called active. Inconclusive results (about 18%) are left out. The list shows a part of the results.
Measurement type: normalized growth

INSERT INTO assay_data (molecule, obs_value) VALUES
  ('CCSC(=N)N', 1.02),
  ('CCC(C(=O)O)c1ccccc1 (stereo not drawn)', 1.02),
  ('CC1(C)C2CC[C@]3(C)C(C(=O)C=C4[C@H]5C[C@@](C)(C(=O)O)CC[C@]5(C)CC[C@]43C)[C@@]2(C)CC[C@@H]1O (stereo partly drawn)', 1.01);

* * *

- Test name: chemical genetic growth profiling, strain panel (AID 1159580);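 note: tested at 20 µM; growth read once vehicle control cultures reached saturation at 30 °C; 1 = growth at the plate median or of vehicle wells; lower values mean less growth of the strain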
- Settings: S. cerevisiae deletion strains, growth OD, locus YNL153C, strain GIM3
The whole screen tested about 5,500 compounds, of which about 2,000 (36%) were called active. Not shown: some 18% with an inconclusive outcome. Cut-off read from the data, not from the text of the source: active = normalized growth mostly below about 0.91 (no sharp cut-off); inconclusive = no clear call, values can overlap the other calls; inactive = mostly above about 0.92. Some of the results follow.
Labels: y = active, n = inactive

INSERT INTO assay_data (compound, assigned_label) VALUES
  ('C[C@H](NC(=O)/C(C#N)=C/c1ccc(O)c(O)c1)c1ccccc1', 'n'),
  ('C[N+](C)(C)CCOP(=O)([O-])OP(=O)(O)OC[C@H]1OC(n2ccc(N)nc2=O)[C@H](O)[C@@H]1O (stereo not given in full)', 'n'),
  ('O=C1CC(c2ccccc2)Oc2ccccc21 (stereo not given)', 'n'),
  ('O=C1CC(c2ccc(O)cc2)Oc2ccccc21 (stereo not given)', 'y'),
  ('COC(=O)c1c(C)[nH]c(C)c1C(=O)c1ccccc1Cc1ccccc1', 'n');

* * *

The reader will find reported normalized growth values listed item by item below.
- Test name: chemical genetic growth profiling, strain panel (AID 1159580);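 note: tested at 20 µM; growth read once vehicle control cultures reached saturation at 30 °C; 1 = growth at the plate median or of vehicle wells; lower values mean less growth of the strain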
- Settings: S. cerevisiae deletion strains, growth OD, locus YKL009W, strain mrt4, stronger effect = lower value
The whole screen tested about 5,500 compounds, of which about 2,000 (36%) were called active. About 18% were inconclusive and are not listed. The list shows a part of the results.
Measurement type: normalized growth

INSERT INTO assay_data (compound, obs_value) VALUES
  ('CC(C)[N+](C)(CCOC(=O)C1c2ccccc2Oc2ccccc21)C(C)C', '1.02 (inactive)'),
  ('COC(=O)COc1cc(Cl)c(Cl)cc1Cl', '0.995 (inactive)'),
  ('CN1Cc2c(ccc3c2OCO3)C2C(O)Cc3cc4c(cc3C21)OCO4 (stereo not given)', '1.01 (inactive)'),
  ('CNC1(C)C2CCC(C2)C1(C)C (stereo not given)', '1.03 (inactive)'),
  ('C[N+](C)(C)CCOP(=O)([O-])OP(=O)(O)OC[C@H]1OC(n2ccc(N)nc2=O)[C@H](O)[C@@H]1O (stereo not given in full)', '1.03 (inactive)'),
  ('CC(=O)O[C@@](C)(CCC=C(C)C)C1CC=C(C)CC1 (stereo not given in full)', '0.962 (inactive)'),
  ('N=c1nc(N2CCCCC2)cc(N)n1O', '0.948 (inactive)'),
  ('CCCCCCCCCCCCC[N+](C)(C)Cc1ccccc1', '0.102 (active)'),
  ('O[C@H]1C=C2CCN3Cc4cc5c(cc4C(C23)[C@@H]1O)OCO5 (stereo not given in full)', '0.858 (active)'),
  ('CCC(C(N)=O)c1ccccc1 (stereo not given)', '1.02 (inactive)'),
  ('Cc1cc(C(C)(C)CC(C)(C)C)ccc1OCCOCC[N+](C)(C)Cc1ccccc1', '0.213 (active)'),
  ('O=C(O)C1C(O)CCC2CN3CCc4c([nH]c5ccccc45)C3CC21 (stereo not given)', '1.03 (inactive)'),
  ('NC(=O)c1ncn([C@@H]2O[C@H](CO)[C@@H](O)[C@H]2O)c1O', '0.996 (inactive)'),
  ('CNc1ccccc1C(=O)N1CCc2c([nH]c3ccccc23)C1=O', '0.949 (inactive)'),
  ('C[N+](C)(C)CC(=O)[O-]', '0.972 (inactive)');
